Quick list: inhibition per entry.
study system: UniProt Q9GZT4
Sequence (Q9GZT4 whole entry): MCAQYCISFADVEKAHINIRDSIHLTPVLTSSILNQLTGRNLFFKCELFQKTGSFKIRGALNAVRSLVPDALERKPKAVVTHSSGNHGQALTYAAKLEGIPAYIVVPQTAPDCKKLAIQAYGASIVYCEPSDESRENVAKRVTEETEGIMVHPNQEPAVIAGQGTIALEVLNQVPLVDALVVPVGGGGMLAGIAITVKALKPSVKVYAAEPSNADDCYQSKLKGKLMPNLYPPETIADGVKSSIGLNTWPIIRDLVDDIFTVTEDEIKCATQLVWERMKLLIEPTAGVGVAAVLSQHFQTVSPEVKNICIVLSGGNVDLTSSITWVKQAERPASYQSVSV
test description: Inhibition of recombinant human SRR expressed in Escherichia coli assessed as reduction in conversion of L-serine to D-serine at 1 mM incubated for => 8 hrs in presence of PLP and recombinant D-serine dehydratase 1 by spectrophotometry relative to control
endpoint name: inhibition (%)

Cc1ccc(S(=O)(=O)Nc2ccccc2NC(=O)Nc2ccc(F)cc2)cc1: 54
Cc1ccc(/C=C/C(=O)NC(=S)NNC(=O)Cc2cccs2)cc1: 24
COc1ccc(/C=C/C(=O)NC(=S)NNC(=O)Cc2cccs2)c(OC)c1: 27
Cc1ccc(S(=O)(=O)Nc2ccccc2NC(=O)Nc2ccc(Cl)c(Cl)c2)cc1: 49
